I'd appreciate it if you could supply cytotoxicity at 70.5 h values for the items below.
Assay: Human HepG2 cell viability assay in 384 well format
Format: toxicity, cell-based
Design: dose 125 nL, time 70.5 hour; concentration not given beside the values
Details: HepG2 cells, read-out: Inhibition
Numbers only, in %.

Solved entries:
molecule	u	assayResult
CN(CCSc1nncn1CC(F)(F)F)c1ccccc1	%	1.22
Cc1nn(CCO)c(C)c1CNC1CCCCc2ccccc21 (centres undefined)	%	3.84
COCCO[C@H]1CCN(c2cc(OC)ncn2)[C@H]1Cc1cccnc1	%	7.05

Hello, I would appreciate it if you could give cytotoxicity at 70.5 h for each entry below.
1. CC(NC(=O)COc1ccccc1Cl)c1nnc2n1CCC2 (centres undefined)
2. C[C@H](CCO)NS(=O)(=O)c1ccc(Br)cn1
3. COCCNC(=O)CSCc1nc(O)c2cc(C(C)C)sc2n1
4. COCCN1CCC(N(Cc2noc(C3CC3)n2)C(C)=O)C1 (centres undefined)
5. Cc1cc(C2CCN(S(=O)(=O)N(C)C)CC2)ccn1
6. CCc1csc(C2CCCN(C(=O)c3ccc(=O)n(C)n3)C2)n1 (centres undefined)
7. CNC(=O)C1Cn2ccnc2C2(CCN(Cc3ccncc3)CC2)O1 (centres undefined)
8. O=C(Cc1ccccn1)N1CCc2ncnc(NC3CCC3)c2CC1

[A]
1: -6.92; 2: -6.95; 3: -8.44; 4: 10.7; 5: 12.7; 6: -11.3; 7: -10.9; 8: -9.73

Hello, I would appreciate it if you could give cytotoxicity at 70.5 h for each entry below.
1. Cc1ccc(NC2CCN(C(=O)c3cc[nH]n3)CC2)nn1
2. Cc1nc(-c2cccs2)ccc1C(=O)N1CCN(CC(C)O)CC1 (centres undefined)
3. Cc1nc(N)cc(NCc2csc(N(C)C)n2)n1

[A]
1: -11; 2: -2.84; 3: -4.3
